Recorded values, source the Human Domainome abundance scans (Beltran et al. 2025).

B1: Transcription factor SOX-4, residues 60 to 127; numbered along this chain, Q06945 (parent)
chain: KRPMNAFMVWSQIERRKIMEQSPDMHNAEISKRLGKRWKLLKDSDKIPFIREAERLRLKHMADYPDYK

Variants of: B1
Assay: abundance fitness (aPCA) (normalised: wild type 0, dead -1); higher = more abundant; growth selection in yeast, the domain comes from the species named
Conditions: Homo sapiens

[
  {
    "Mutant Code": "I30P",
    "abundance fitness": -0.976
  },
  {
    "Mutant Code": "Y67S",
    "abundance fitness": 0.088
  },
  {
    "Mutant Code": "D43C",
    "abundance fitness": -0.37
  },
  {
    "Mutant Code": "S31P",
    "abundance fitness": -0.733
  },
  {
    "Mutant Code": "K59F",
    "abundance fitness": -0.321
  },
  {
    "Mutant Code": "P48I",
    "abundance fitness": -0.089
  },
  {
    "Mutant Code": "Y67C",
    "abundance fitness": -0.04
  },
  {
    "Mutant Code": "K46M",
    "abundance fitness": -0.841
  },
  {
    "Mutant Code": "R33T",
    "abundance fitness": 0.085
  },
  {
    "Mutant Code": "Y64F",
    "abundance fitness": -0.156
  },
  {
    "Mutant Code": "D43A",
    "abundance fitness": -0.061
  },
  {
    "Mutant Code": "S31R",
    "abundance fitness": -0.137
  },
  {
    "Mutant Code": "E54Q",
    "abundance fitness": -0.071
  },
  {
    "Mutant Code": "E54D",
    "abundance fitness": -0.264
  },
  {
    "Mutant Code": "Y67R",
    "abundance fitness": 0.048
  },
  {
    "Mutant Code": "L40D",
    "abundance fitness": 0.094
  },
  {
    "Mutant Code": "A53M",
    "abundance fitness": -0.585
  },
  {
    "Mutant Code": "P48T",
    "abundance fitness": -0.346
  },
  {
    "Mutant Code": "D66Q",
    "abundance fitness": -0.254
  },
  {
    "Mutant Code": "L40Q",
    "abundance fitness": 0.011
  },
  {
    "Mutant Code": "K32Q",
    "abundance fitness": 0.066
  },
  {
    "Mutant Code": "H60W",
    "abundance fitness": -0.161
  },
  {
    "Mutant Code": "Q21R",
    "abundance fitness": -0.267
  },
  {
    "Mutant Code": "K39N",
    "abundance fitness": -0.19
  },
  {
    "Mutant Code": "D63V",
    "abundance fitness": -0.224
  },
  {
    "Mutant Code": "L41T",
    "abundance fitness": -0.788
  },
  {
    "Mutant Code": "D43V",
    "abundance fitness": -0.262
  },
  {
    "Mutant Code": "R55V",
    "abundance fitness": -0.248
  },
  {
    "Mutant Code": "I47M",
    "abundance fitness": -0.047
  },
  {
    "Mutant Code": "E52F",
    "abundance fitness": -0.215
  },
  {
    "Mutant Code": "H60K",
    "abundance fitness": 0.023
  },
  {
    "Mutant Code": "H26K",
    "abundance fitness": 0.138
  },
  {
    "Mutant Code": "H60D",
    "abundance fitness": 0.005
  },
  {
    "Mutant Code": "I47P",
    "abundance fitness": -0.796
  },
  {
    "Mutant Code": "P65W",
    "abundance fitness": -0.466
  },
  {
    "Mutant Code": "E29L",
    "abundance fitness": -0.518
  },
  {
    "Mutant Code": "H60L",
    "abundance fitness": -0.186
  },
  {
    "Mutant Code": "I50W",
    "abundance fitness": -0.633
  },
  {
    "Mutant Code": "K42H",
    "abundance fitness": -0.487
  },
  {
    "Mutant Code": "R33K",
    "abundance fitness": 0.048
  },
  {
    "Mutant Code": "Q21E",
    "abundance fitness": -0.062
  },
  {
    "Mutant Code": "Y67H",
    "abundance fitness": -0.301
  },
  {
    "Mutant Code": "R55T",
    "abundance fitness": -0.181
  },
  {
    "Mutant Code": "H26Q",
    "abundance fitness": 0.111
  },
  {
    "Mutant Code": "M61S",
    "abundance fitness": 0.001
  },
  {
    "Mutant Code": "A53R",
    "abundance fitness": -0.924
  }
]
